Values from the supplement of paper PMC6897291

- Test system: RIVA
- protocol details: growth inhibition by drug plus 177Lu-lilotomab satetraxetan (1 - RLU/untreated control) (fraction); higher = stronger inhibition
- condition label: 10 nM; time (day): 6; 177Lu-lilotomab satetraxetan 0.5 ug/ml
Where a name gives a salt, the structure may show the parent alone.
assay endpoint: growth inhibition by drug plus 177Lu-lilotomab satetraxetan

INSERT INTO measurements (molecule, result) VALUES
  ('CCc1cncnc1N1CCN(Cc2nc3ccc(C(F)(F)F)cc3[nH]2)CC1', 0.587),
  ('COc1ccc(/C=C\c2cc(OC)c(OC)c(OC)c2)cc1O', 0.984),
  ('Cc1cc(Nc2cc(N3CCN(C)CC3)nc(Sc3ccc(NC(=O)C4CC4)cc3)n2)n[nH]1', 0.658),
  ('CC(C)(C#N)c1cc(Cn2cncn2)cc(C(C)(C)C#N)c1', 0.583),
  ('CC(C)(C)c1[nH]cnc1/C=c1\[nH]c(=O)/c(=C/c2ccccc2)[nH]c1=O', 0.574),
  ('C#Cc1cccc(Nc2ncnc3cc(OC)c(OCCCCCCC(=O)NO)cc23)c1', 0.496),
  ('CC(C)c1onc(-c2c(Cl)cccc2Cl)c1COc1ccc(/C=C/c2cccc(C(=O)O)c2)c(Cl)c1', 0.583),
  ('Clc1ccc(Nc2nnc(Cc3ccncc3)c3ccccc23)cc1 [Vatalanib dihydrochloride (PTK787)]', 0.534),
  ('O=C(O)c1ccc2cc(-c3ccc(O)c(C45CC6CC(CC(C6)C4)C5)c3)ccc2c1', 0.702),
  ('COc1ccc(C2CC(c3ccccc3)=NN2c2ccc(S(N)(=O)=O)cc2)cc1 (stereo not given)', 0.554),
  ('O=C(CCCCCCC(=O)Nc1ccccc1)NO [Vorinostat (SAHA)]', 0.553),
  ('c1ccc2c(CCNc3ccc(Nc4ccncc4)cc3)c[nH]c2c1', 0.5),
  ('CO[C@H]1C[C@@H]2CC[C@@H](C)[C@@](O)(O2)C(=O)C(=O)N2CCCC[C@H]2C(=O)O[C@H]([C@H](C)C[C@@H]2CC[C@@H](OCCO)[C@H](OC)C2)CC(=O)[C@H](C)/C=C(\C)[C@@H](O)[C@@H](OC)C(=O)[C@H](C)C[C@H](C)/C=C/C=C/C=C/1C [Everolimus (RAD001)]', 0.788),
  ('C=CC(=O)N1CCC[C@@H](n2nc(-c3ccc(Oc4ccccc4)cc3)c3c(N)ncnc32)C1', 0.853),
  ('Cc1ccc([N+](=O)[O-])cc1S(=O)(=O)N(C)/N=C/c1cnc2ccc(Br)cn12', 0.726),
  ('COc1ccc(C2=N[C@@H](c3ccc(Cl)cc3)[C@@H](c3ccc(Cl)cc3)N2C(=O)N2CCNC(=O)C2)c(OC(C)C)c1', 0.521),
  ('Cc1c(C(=O)Nc2ccc(N3C[C@@H](C)O[C@@H](C)C3)nc2)cccc1-c1ccc(OC(F)(F)F)cc1', 0.547),
  ('CO[C@H]1/C=C\C=C(/C)C(=O)NC2=CC(=O)C(NCCN(C)C)=C(C[C@@H](C)C[C@H](OC)[C@H](O)[C@@H](C)/C=C(\C)[C@@H]1OC(N)=O)C2=O [17-DMAG HCl (Alvespimycin)]', 0.653),
  ('Nc1nccc(Oc2ccc(NC(=O)c3c[nH]cc(-c4ccc(F)cc4)c3=O)cc2F)c1Cl', 0.547),
  ('Nc1ccccc1NC(=O)c1ccc(CNc2nccc(-c3cccnc3)n2)cc1', 0.576),
  ('CC[C@]1(O)C[C@H]2CN(CCc3c([nH]c4ccccc34)[C@@](C(=O)OC)(c3cc4c(cc3OC)N(C=O)[C@H]3[C@@](O)(C(=O)OC)[C@H](OC(C)=O)[C@]5(CC)C=CCN6CC[C@]43[C@@H]65)C2)C1', 0.985),
  ('O=c1cc(N2CCOCC2)oc2c(-c3cccc4c3sc3ccccc34)cccc12', 0.635),
  ('CCN(CC)CCCCNc1ncc2cc(-c3cc(OC)cc(OC)c3)c(NC(=O)NC(C)(C)C)nc2n1', 0.597),
  ('Nc1ccc(C(=O)Nc2cccc(-c3nc(N4CCOCC4)c4oc5ncccc5c4n3)c2)cn1', 0.579),
  ('Cc1cccc(-c2nn3c(c2-c2ccnc4ccc(C(N)=O)cc24)CCC3)n1', 0.523);

* * *

Here the recorded growth inhibition by drug alone is given for each entry.
- Test system: U-2932
- protocol details: growth inhibition by drug alone (1 - RLU/untreated control) (fraction); higher = stronger inhibition
- condition label: 1000 nM; time (day): 5; 177Lu-lilotomab satetraxetan 0 ug/ml
assay endpoint: growth inhibition by drug alone

INSERT INTO assay_data (compound, target_system, assay_endpoint, result) VALUES
  ('CO[C@H]1C[C@@H]2CC[C@@H](C)[C@@](O)(O2)C(=O)C(=O)N2CCCC[C@H]2C(=O)O[C@H]([C@H](C)C[C@@H]2CC[C@@H](OC(=O)C(C)(CO)CO)[C@H](OC)C2)CC(=O)[C@H](C)/C=C(\C)[C@@H](O)[C@@H](OC)C(=O)[C@H](C)C[C@H](C)/C=C/C=C/C=C/1C [Temsirolimus (Torisel)]', 'U-2932', 'growth inhibition by drug alone', 0.677),
  ('CC(C)CC(=O)Nc1n[nH]c2c1CN(C(=O)C1CCN(C)CC1)C2(C)C', 'U-2932', 'growth inhibition by drug alone', 0.911),
  ('CC1(CN2CCC(n3c(=O)[nH]c4ccccc43)CC2)OCc2ccccc2-n2cccc21 (stereo not drawn)', 'U-2932', 'growth inhibition by drug alone', -0.126);

* * *

- System: RIVA
- protocol details: growth inhibition by drug plus 177Lu-lilotomab satetraxetan (1 - RLU/untreated control) (fraction); higher = stronger inhibition
- condition label: 10 nM; time (day): 6; 177Lu-lilotomab satetraxetan 0.5 ug/ml
Counter-ions that a name gives are not always drawn.
Rule: criterion met for growth inhibition by drug plus 177Lu-lilotomab satetraxetan not less than 0.6, criterion not met for anything less.

INSERT INTO measurements (compound, class_name) VALUES
  ('O=C(Cc1ccc(-c2ccc(OCCN3CCOCC3)cc2)cn1)NCc1ccccc1', 'criterion not met'),
  ('c1ccc2c(-c3cnn4cc(-c5ccc(N6CCNCC6)cc5)cnc34)ccnc2c1', 'criterion not met'),
  ('Nc1nc(N)c(N=O)c(OCC2CCCCC2)n1', 'criterion not met'),
  ('CC(=O)O[C@]1(C(C)=O)CC[C@H]2[C@@H]3C[C@H](C)C4=CC(=O)CC[C@]4(C)[C@H]3CC[C@@]21C [Medroxyprogesterone acetate]', 'criterion not met'),
  ('C[C@@H]1CN(CC(=O)Nc2ccc3c(c2)Cc2cccc(-c4cc(=O)cc(N5CCOCC5)o4)c2S3)C[C@H](C)O1', 'criterion not met'),
  ('CCn1c(-c2nonc2N)nc2cnc(Oc3cccc(NC(=O)c4ccc(OCCN5CCOCC5)cc4)c3)cc21', 'criterion not met'),
  ('Cc1ccc(-n2nc(C(C)(C)C)cc2NC(=O)Nc2ccc(OCCN3CCOCC3)c3ccccc23)cc1', 'criterion met'),
  ('O=c1cc(-c2cccc3c2Sc2ccccc2S3)oc(N2CCOCC2)c1', 'criterion not met'),
  ('O=c1[nH]nc(Sc2ncc([N+](=O)[O-])s2)n1-c1ccc2c(c1)OCCO2', 'criterion not met'),
  ('Cc1ccnc(NS(=O)(=O)c2ccc(NC(=O)Nc3ccc(S(=O)(=O)Nc4nccc(C)n4)cc3)cc2)n1', 'criterion met'),
  ('Oc1ccc(Nc2nc(-c3ccc(Cl)cc3)cs2)cc1', 'criterion not met'),
  ('C#CCN(C)CC1=Cc2ccccc2Oc2ccccc21', 'criterion met'),
  ('CC(=O)[C@]1(O)Cc2c(O)c3c(c(O)c2[C@@H](O[C@H]2C[C@H](N)[C@H](O)[C@H](C)O2)C1)C(=O)c1ccccc1C3=O [Idarubicin HCl]', 'criterion met'),
  ('C[C@H](NC(=O)Cc1cc(F)cc(F)c1)C(=O)N[C@@H]1C(=O)N(C)c2ccccc2-c2ccccc21', 'criterion not met'),
  ('COc1ccc(COc2cc3oc(=O)c4cc(C(C)O)ccc4c3cc2OC)cc1 (configuration not stated)', 'criterion not met'),
  ('CO[C@H]1C[C@@H]2CC[C@@H](C)[C@@](O)(O2)C(=O)C(=O)N2CCCC[C@H]2C(=O)O[C@H]([C@H](C)C[C@@H]2CC[C@@H](O)[C@H](OC)C2)CC(=O)[C@H](C)/C=C(\C)[C@@H](O)[C@@H](OC)C(=O)[C@H](C)C[C@H](C)/C=C/C=C/C=C/1C [Rapamycin (Sirolimus)]', 'criterion met'),
  ('CCC(C)(C)C(=O)O[C@H]1C[C@@H](C)C=C2C=C[C@H](C)[C@H](CC[C@@H]3C[C@@H](O)CC(=O)O3)[C@H]21 [Simvastatin (Zocor)]', 'criterion not met'),
  ('Nc1ccn([C@@H]2O[C@H](CO)[C@@H](O)[C@@H]2O)c(=O)n1', 'criterion met'),
  ('O=C1CN2Cc3c(ccc(Cl)c3Cl)N=C2N1 [Anagrelide hydrochloride]', 'criterion met'),
  ('COc1cc2nccc(Oc3ccc(NC(=O)Nc4cc(C)on4)c(Cl)c3)c2cc1OC', 'criterion not met'),
  ('O=C(O)CC[C@H]1CC[C@@](c2cc(F)ccc2F)(S(=O)(=O)c2ccc(Cl)cc2)CC1', 'criterion met'),
  ('CCNC(=O)c1noc(-c2cc(C(C)C)c(O)cc2O)c1-c1ccc(CN2CCOCC2)cc1', 'criterion not met'),
  ('CCOc1ccc(Nc2nc(-c3c(C)nc4ccccn34)cs2)cc1', 'criterion met'),
  ('Nc1nc(OCc2cc(Br)cs2)c2[nH]cnc2n1', 'criterion not met'),
  ('CC(C)C[C@H](NC(=O)[C@H](Cc1ccccc1)NC(=O)c1cnccn1)B(O)O', 'criterion met'),
  ('Nc1ncn([C@@H]2O[C@H](CO)[C@@H](O)[C@H]2O)c(=O)n1', 'criterion not met');
